Tested on: blood coagulation
Experiment: PT and aPTT assay in cynomolgus monkeys (Example 46)
Format: in vivo
Settings: Day 10; platelet poor plasma; relative to PBS group
Strand notation (5' to 3'): a small letter for the sugar, then the base; units joined by * are phosphorothioate-linked, units joined directly phosphodiester-linked; [ ] holds rarer units or linkages, { } end groups; capitals alone tell only the bases. e = 2'-O-(2-methoxyethyl) (MOE); [5mC] = 5-methylcytosine; d = 2'-deoxy (DNA)
PT ratio (INR) for assorted substances
// no unit, no text: just the number

ISIS 449710: 3-8-3, 4-8-4, 2-10-2, 3-10-3 or 4-10-4 MOE microwalk gapmer (Table 46) (antisense e[5mC]*eA*e[5mC]*dA*dG*dT*dT*dT*d[5mC]*dT*dG*dG*d[5mC]*eA*eG*eG); 0.98
ISIS 416858: MOE gapmer, nucleobases 1275 to 1318 of SEQ ID NO: 1 (Table 8) (antisense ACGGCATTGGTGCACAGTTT; MOE gapmer, wing and gap sizes not given here); 0.96

The value of PT ratio (INR) measured for the substance ISIS 449709: 3-8-3, 4-8-4, 2-10-2, 3-10-3 or 4-10-4 MOE microwalk gapmer (Table 46) (antisense eG*e[5mC]*eA*e[5mC]*dA*dG*dT*dT*dT*d[5mC]*dT*dG*dG*d[5mC]*eA*eG*eG*e[5mC]) turned out to be 0.95

The value of PT ratio (INR) measured for the substance ISIS 449708: 3-8-3, 4-8-4, 2-10-2, 3-10-3 or 4-10-4 MOE microwalk gapmer (Table 46) (antisense eA*e[5mC]*eA*dG*dT*dT*dT*d[5mC]*dT*dG*dG*e[5mC]*eA*eG) turned out to be 0.98

The value of PT ratio (INR) measured for the substance ISIS 445531: 5-8-5 or 6-8-6 MOE microwalk gapmer (Table 44) (antisense eG*eG*e[5mC]*eA*eT*dT*dG*dG*dT*dG*d[5mC]*dA*d[5mC]*eA*eG*eT*eT*eT) turned out to be 1.00

The value of PT ratio (INR) measured for the substance ISIS 449707: 3-8-3, 4-8-4, 2-10-2, 3-10-3 or 4-10-4 MOE microwalk gapmer (Table 46) (antisense e[5mC]*eA*e[5mC]*eA*dG*dT*dT*dT*d[5mC]*dT*dG*dG*e[5mC]*eA*eG*eG) turned out to be 0.95

The value of PT ratio (INR) measured for the substance ISIS 449711: 3-8-3, 4-8-4, 2-10-2, 3-10-3 or 4-10-4 MOE microwalk gapmer (Table 46) (antisense eA*e[5mC]*dA*dG*dT*dT*dT*d[5mC]*dT*dG*dG*d[5mC]*eA*eG) turned out to be 0.94

* * *

System: human Factor 11 mRNA
Experiment: Dose-dependent inhibition of human Factor 11 in HepG2 cells, electroporation 123.46-10,000 nM (Example 31)
Format: cell-based
Details: electroporation, Factor 11 mRNA expression
Strand notation (5' to 3'): a small letter for the sugar, then the base; units joined by * are phosphorothioate-linked, units joined directly phosphodiester-linked; [ ] holds rarer units or linkages, { } end groups; capitals alone tell only the bases. e = 2'-O-(2-methoxyethyl) (MOE); [5mC] = 5-methylcytosine; d = 2'-deoxy (DNA)
outcome measure: IC50 (nM)
Report the value in nM with no unit label.

The value of IC50 measured for the substance 416850 (antisense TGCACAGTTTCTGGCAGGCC; 5-10-5 gapmer, further chemistry not given here) [compound 416850] turned out to be 2800

The value of IC50 measured for the substance 416849 (antisense eG*e[5mC]*eA*e[5mC]*eA*dG*dT*dT*dT*d[5mC]*dT*dG*dG*d[5mC]*dA*eG*eG*e[5mC]*e[5mC]*eT) [compound 416849] turned out to be 2700

The value of IC50 measured for the substance 445503 (antisense eG*e[5mC]*eA*eT*eT*eG*dG*dT*dG*d[5mC]*dA*d[5mC]*dA*dG*eT*eT*eT*e[5mC]*eT*eG) [compound 445503] turned out to be 5900

The value of IC50 measured for the substance 416861 (antisense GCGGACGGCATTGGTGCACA; 5-10-5 gapmer, further chemistry not given here) [compound 416861] turned out to be 2000

The value of IC50 measured for the substance 416857 (antisense e[5mC]*eG*eG*e[5mC]*eA*dT*dT*dG*dG*dT*dG*d[5mC]*dA*d[5mC]*dA*eG*eT*eT*eT*e[5mC]) [compound 416857] turned out to be 2300

* * *

monocytes for assorted substances
Test: Hematology assays in cynomolgus monkeys (Example 45)
Type: in vivo
Settings: day 85
Procedure: Groups, each consisting of two male and three female monkeys, were injected subcutaneously with ISIS 416838, ISIS 416850, ISIS 416858, ISIS 416864, or ISIS 417002 in escalating doses. […] Body weights were measured weekly. […]
Report the value in % with no unit label.

Use the examples below as a reference point.
ISIS 416864: MOE gapmer, nucleobases 1275 to 1318 of SEQ ID NO: 1 (Table 8) (antisense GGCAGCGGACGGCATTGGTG; MOE gapmer, wing and gap sizes not given here); 3.7
ISIS 417002: MOE gapmer, nucleobases 1275 to 1318 of SEQ ID NO: 1 (Table 8) (antisense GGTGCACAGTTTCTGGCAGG; MOE gapmer, wing and gap sizes not given here); 5.3
ISIS 416858: MOE gapmer, nucleobases 1275 to 1318 of SEQ ID NO: 1 (Table 8) (antisense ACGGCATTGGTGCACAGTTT; MOE gapmer, wing and gap sizes not given here); 6.1

Shifting focus to the substance that follows.
The value of monocytes measured for the substance ISIS 416838: MOE gapmer, nucleobases 1018 to 1042 of SEQ ID NO: 1 (Table 6) (antisense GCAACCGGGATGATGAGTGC; MOE gapmer, wing and gap sizes not given here) turned out to be 3.7

* * *

Assay: Hematology assays in cynomolgus monkeys (Example 45)
Assay type: in vivo
Conditions: day −5
outcome measure: lymphocytes (%)
Report the value in % with no unit label.

ISIS 417002: MOE gapmer, nucleobases 1275 to 1318 of SEQ ID NO: 1 (Table 8) (antisense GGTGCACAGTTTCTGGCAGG; MOE gapmer, wing and gap sizes not given here); 53

Shifting focus to the substance that follows.
The value of lymphocytes measured for the substance ISIS 416838: MOE gapmer, nucleobases 1018 to 1042 of SEQ ID NO: 1 (Table 6) (antisense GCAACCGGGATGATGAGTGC; MOE gapmer, wing and gap sizes not given here) turned out to be 59

* * *

Test system: human Factor 11 mRNA
Test: Antisense inhibition of human Factor 11 in HepG2 cells by microwalk gapmers, lipofectin, 75 nM (Example 3)
Type: cell-based
Conditions: HepG2, lipofectin, ~24 h, gapmers targeted to nucleobases 656 to 704 of SEQ ID NO: 1
Strand notation (5' to 3'): a small letter for the sugar, then the base; units joined by * are phosphorothioate-linked, units joined directly phosphodiester-linked; [ ] holds rarer units or linkages, { } end groups; capitals alone tell only the bases. e = 2'-O-(2-methoxyethyl) (MOE); [5mC] = 5-methylcytosine; d = 2'-deoxy (DNA)
outcome measure: % inhibition (%)
Report the value in % with no unit label.

Use the examples below as a reference point.
416950 (antisense eA*e[5mC]*dA*dT*dA*dA*dA*dT*dG*dT*d[5mC]*dT*dT*dT*dG*eT*eT*eG*e[5mC]*eA) [compound 416950]; 71
416962 (antisense eA*eT*dG*dT*d[5mC]*dT*dA*dG*dG*dT*d[5mC]*d[5mC]*dA*d[5mC]*dA*eT*eA*eA*eA*eT) [compound 416962]; 77

The value of % inhibition measured for the substance 416964 (antisense eT*e[5mC]*dA*dT*dG*dT*d[5mC]*dT*dA*dG*dG*dT*d[5mC]*d[5mC]*dA*e[5mC]*eA*eT*eA*eA) [compound 416964] turned out to be 69

* * *

BUN for assorted substances
Assay: Tolerability in Sprague-Dawley rats: kidney function (Example 44)
Type: in vivo
Conditions: 50 mg/kg s.c. twice per week for 6 weeks, plasma
Strand notation (5' to 3'): a small letter for the sugar, then the base; units joined by * are phosphorothioate-linked, units joined directly phosphodiester-linked; [ ] holds rarer units or linkages, { } end groups; capitals alone tell only the bases. e = 2'-O-(2-methoxyethyl) (MOE); [5mC] = 5-methylcytosine; d = 2'-deoxy (DNA)
Report the value in mg/dL with no unit label.

Use the examples below as a reference point.
ISIS 449707: 3-8-3, 4-8-4, 2-10-2, 3-10-3 or 4-10-4 MOE microwalk gapmer (Table 46) (antisense e[5mC]*eA*e[5mC]*eA*dG*dT*dT*dT*d[5mC]*dT*dG*dG*e[5mC]*eA*eG*eG); 24
ISIS 449708: 3-8-3, 4-8-4, 2-10-2, 3-10-3 or 4-10-4 MOE microwalk gapmer (Table 46) (antisense eA*e[5mC]*eA*dG*dT*dT*dT*d[5mC]*dT*dG*dG*e[5mC]*eA*eG); 24
ISIS 449710: 3-8-3, 4-8-4, 2-10-2, 3-10-3 or 4-10-4 MOE microwalk gapmer (Table 46) (antisense e[5mC]*eA*e[5mC]*dA*dG*dT*dT*dT*d[5mC]*dT*dG*dG*d[5mC]*eA*eG*eG); 29

The value of BUN measured for the substance ISIS 449709: 3-8-3, 4-8-4, 2-10-2, 3-10-3 or 4-10-4 MOE microwalk gapmer (Table 46) (antisense eG*e[5mC]*eA*e[5mC]*dA*dG*dT*dT*dT*d[5mC]*dT*dG*dG*d[5mC]*eA*eG*eG*e[5mC]) turned out to be 24

The value of BUN measured for the substance ISIS 449711: 3-8-3, 4-8-4, 2-10-2, 3-10-3 or 4-10-4 MOE microwalk gapmer (Table 46) (antisense eA*e[5mC]*dA*dG*dT*dT*dT*d[5mC]*dT*dG*dG*d[5mC]*eA*eG) turned out to be 28
